The entries below are paired with their reported IC50.
Target: C-C chemokine receptor type 5 (Homo sapiens, UniProt P51681)
Sequence (P51681 whole entry): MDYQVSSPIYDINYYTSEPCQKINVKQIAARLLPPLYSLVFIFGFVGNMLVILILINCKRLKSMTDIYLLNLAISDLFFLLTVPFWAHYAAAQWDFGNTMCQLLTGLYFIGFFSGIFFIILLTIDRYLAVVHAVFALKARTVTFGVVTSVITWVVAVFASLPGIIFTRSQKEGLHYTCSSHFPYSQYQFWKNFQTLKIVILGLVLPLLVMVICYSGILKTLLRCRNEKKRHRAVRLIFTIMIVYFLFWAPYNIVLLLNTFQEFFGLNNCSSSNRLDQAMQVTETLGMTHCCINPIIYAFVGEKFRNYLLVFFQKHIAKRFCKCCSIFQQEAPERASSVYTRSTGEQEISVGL
Assay: Displacement of […] from CCR5 receptor receptors expressed in CHO cells
Assay type: cell-based
Reply numerically in nM, unit not repeated.

Take a look at these entries with their results.
molecule: CCCC[C@H]1CN(CC2CCOCC2)C(=O)OC12CCN(C1C[C@@H]3CN(C(=O)c4c(C)cc(C#N)nc4C)C[C@@H]3C1)CC2 (stereo partly specified)
readout_label: IC50
value_units: nM
recorded_number: 15
//
molecule: CCCC[C@H]1CN(C[C@H]2CC[C@H](OCC)CC2)C(=O)OC12CCN(C1C[C@@H]3CN(C(=O)c4c(C)ncnc4C)C[C@@H]3C1)CC2 (stereo partly specified)
readout_label: IC50
value_units: nM
recorded_number: 44
//
molecule: CCCC[C@H]1CN(CC2CCOCC2)C(=O)OC12CCN(C1C[C@@H]3CN(C(=O)c4c(C)ncnc4C)C[C@@H]3C1)CC2 (stereo partly specified)
readout_label: IC50
value_units: nM
recorded_number: 14

Please report the measured IC50 for CCO[C@H]1Cc2cc(C(F)(F)F)ccc2[C@@H]1N1CCN(C2C[C@@H]3CN(C(=O)c4c(C)ccnc4C)C[C@@H]3C2)C[C@@H]1C (stereo partly specified) 98

* * *

System: Human immunodeficiency virus 1
Test: Antiviral activity against HIV1 NLBal infected JC53BL cells assessed as inhibition of replication by luciferase reporter assay
Format: functional, organism-based
Conditions: Human immunodeficiency virus 1, NLBal
pIC50: −log10 of the molar value.
readout_label: pIC50

Solved cases (4 shown):
compound: CCO[C@H]1Cc2cc(C(F)(F)F)ccc2[C@@H]1N1CCN(C2C[C@@H]3CN(C(=O)c4c(C)ncnc4C)C[C@@H]3C2)C[C@@H]1C (stereo not given in full)
pIC50: < 6.20
--
compound: COC[C@@H](c1ccc(C(F)(F)F)cc1)N1CCN(C2C[C@@H]3CN(C(=O)c4c(C)ccnc4C)C[C@@H]3C2)C[C@@H]1C (stereo not given in full)
pIC50: < 6.20
--
compound: CCCC[C@H]1CN(CC2CCOCC2)C(=O)OC12CCN(C1(C)C[C@H]3CN(C(=O)c4c(C)ncnc4C)C[C@H]3C1)CC2 (stereo not given in full)
pIC50: ≤ 6.20
--
compound: COC[C@@H](c1ccc(C(F)(F)F)cc1)N1CCN(C2C[C@@H]3CN(C(=O)c4c(C)ncnc4C)C[C@@H]3C2)C[C@@H]1C (stereo not given in full)
pIC50: < 6.20

Identify measured pIC50 associated with COC[C@@H](c1ccc(C(F)(F)F)cc1)N1CCN(C2C[C@@H]3CN(C(=O)c4c(C)cc(C#N)nc4C)C[C@@H]3C2)C[C@@H]1C (stereo not given in full) < 6.20
